Just for reference, patent US8030300B2 is where these values come from.

tested-on: α2β4 nAChR subtype (Rattus norvegicus, UniProt P12389+P12392)
Construct: expressed in transfected cells
Sequence (P12389 28-511): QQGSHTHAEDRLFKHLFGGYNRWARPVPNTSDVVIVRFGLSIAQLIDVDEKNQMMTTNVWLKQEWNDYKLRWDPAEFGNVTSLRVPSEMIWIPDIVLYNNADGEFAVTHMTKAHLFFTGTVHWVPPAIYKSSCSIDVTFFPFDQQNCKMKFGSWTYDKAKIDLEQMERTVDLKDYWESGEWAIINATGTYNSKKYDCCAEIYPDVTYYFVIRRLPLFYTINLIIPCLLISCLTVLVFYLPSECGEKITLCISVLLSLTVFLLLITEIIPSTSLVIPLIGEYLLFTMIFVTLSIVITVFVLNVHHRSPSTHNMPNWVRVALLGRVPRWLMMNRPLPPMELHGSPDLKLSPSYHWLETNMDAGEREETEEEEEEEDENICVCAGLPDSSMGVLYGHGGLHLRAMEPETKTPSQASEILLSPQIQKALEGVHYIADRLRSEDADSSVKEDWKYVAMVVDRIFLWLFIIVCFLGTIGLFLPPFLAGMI
Sequence (P12392 21-495): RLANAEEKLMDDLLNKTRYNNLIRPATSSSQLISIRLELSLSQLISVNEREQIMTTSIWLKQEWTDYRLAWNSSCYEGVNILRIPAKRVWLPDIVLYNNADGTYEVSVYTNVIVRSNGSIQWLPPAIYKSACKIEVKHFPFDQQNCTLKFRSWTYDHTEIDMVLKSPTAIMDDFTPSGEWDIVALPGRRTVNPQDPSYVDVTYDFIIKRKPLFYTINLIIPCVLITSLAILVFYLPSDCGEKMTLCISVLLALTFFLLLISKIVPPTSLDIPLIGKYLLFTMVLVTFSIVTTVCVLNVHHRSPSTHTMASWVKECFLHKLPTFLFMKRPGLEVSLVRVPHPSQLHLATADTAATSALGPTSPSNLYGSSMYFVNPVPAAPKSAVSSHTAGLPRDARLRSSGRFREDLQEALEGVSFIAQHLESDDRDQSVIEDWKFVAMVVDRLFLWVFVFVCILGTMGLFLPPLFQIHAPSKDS
assay-remarks: biochemical
Format: binding
condition: Ki α2β4, Table 6; [3H]-EB 0.099 nM, 0.091 nM; ligand 0.00197-100 μM; n = 1
observed-property: Ki (nM)
Numbers only, in nM.

INSERT INTO measurements (molecule, tested_on, units_label, assay_value) VALUES
  ('CN1CCC[C@H]1COc1cccnc1 [Ligand 8, reference compound]', 'α2β4 nAChR subtype (Rattus norvegicus, UniProt P12389+P12392)', 'nM', 209);

Moving on to another molecule below.
Which Ki is listed for c1cncc(OC[C@@H]2CCN2)c1 [Ligand A-85380, reference compound] ?
18.4
